Test system: T1, UNK ZnF1-3 (human, UniProt Q9C0B0 31-174)
T1 sequence: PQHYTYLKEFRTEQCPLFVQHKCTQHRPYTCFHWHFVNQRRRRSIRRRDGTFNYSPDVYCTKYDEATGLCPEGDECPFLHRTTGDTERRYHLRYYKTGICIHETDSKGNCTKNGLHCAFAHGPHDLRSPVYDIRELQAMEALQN
Experiment summary: nsRBNS (natural sequence RNA bind-n-seq); RBNS binding buffer (assumed for nsRBNS): 25 mM Tris pH 7.5, 150 mM KCl, 3 mM MgCl2, 0.01% Triton X-100, 500 ug/ml BSA, 20 U/ml SUPERase-In, 4 C; UNK is unkempt and MSI1 is Musashi-1; names of the RNAs are library labels; protein concentration not given here; high values mean tight binding
In all, about 24,000 sequences were measured (“enrichment r”: median about 0.99, highest 2% from about 3.7 on). Many of the other results were omitted from the sample, so the highest values are more common in it than they were.
// values below are reported binding signal
Give the value, in units of enrichment R, as a plain number.

Reference set (2 entries):
{"Binder": "chr2:42509997:42509998:+_ENSG00000143924_ENST00000318522|hu_mus|hu_hu_hu_mus_True|38_108 (ssRNA) RNA: GGGAGUUCUACAGUCCGACGAUCUCGCUGAGUUCUCUCCUCAUAAUUAAACAGGACUACCACUGAGGCGAUAAAAUAAACUAUCUCCCCUGUGGGAAGAAGGUAAACAUUCGCUCUACAGUCCUUUCCUCGAUAACCGUAUACCAACAGAGGAUUGAGCAUCA", "binding signal (enrichment R)": 1.03}
{"Binder": "chr19:15271055:15271056:-_ENSG00000074181_ENST00000263388|hu_mus|FALSE|FALSE (ssRNA) RNA: GGGAGUUCUACAGUCCGACGAUCAUAUAUAUUUUGUAAAAAAUAAUAAUAAUAAUAAGUUUGUUUAAAUGAAUUUGUCUCUAUACAAAAUGUAAAAAAGAAAAAAAUAAUAACUCACUCUUGUCAGAGUGUGAGACAAUGAGACAACAGAGGAUUGAGCAUCA", "binding signal (enrichment R)": 4.58}

[Q] What does the data say about its binding signal? Entry: chr4:95690885:95690886:+_ENSMUSG00000028572_ENSMUST00000156910|mus_mus|mus_mus_mus_hu_False|8_78 (ssRNA) RNA: GGGAGUUCUACAGUCCGACGAUCUUUAGAAAAUGUUAAAUACCAUGCUAAAAUAUUGUAAUUUUAAUAUUUUAUUUUACCAGAAGUCACAGGCAAGCAGACACUACAAGAAUAUAUGAAAAUGAAACAACAGUGUAUAACUGUCAACAGAGGAUUGAGCAUCA
[A] 1.97

[Q] Quick one: chr17:35122734:35122735:+_ENSMUSG00000007050_ENSMUST00000114011|mus_mus|FALSE|FALSE (ssRNA) RNA: GGGAGUUCUACAGUCCGACGAUCUCCAUCCCUCAAAUGUAUUACAUGUCGCCACGGAAGGGCUUAGGAUGCUGCUCCCAUCUCCAGGAAAGAUGAGAAAAAGGUACAGACUGGGAGCCAGUCCAGGACCAUUCUGCAGUUCCUCAACAGAGGAUUGAGCAUCA
[A] 1.03

[Q] Quick one: chr11:99246628:99246629:-_ENSMUSG00000019761_ENSMUST00000103131|mus_mus|FALSE|FALSE (ssRNA) RNA: GGGAGUUCUACAGUCCGACGAUCAUAGUUUGCAUCAGUAAGAAAGUUUAUUGAAAUUUAUUAGUAAAUGAGAAAUUAAUAAGUAAGUGAGAAAGUUUUCUUCUUUUUUCUCCACAAAAGAACACUUUCUGAUAGAUGAAAAGACAACAGAGGAUUGAGCAUCA
[A] 19.7
